Tested on: Monkey
ASSAY: The maximal difference in Intraocular Pressure (IOP) measured in treated and control eyes. The effect was tested in monkey at a dose of 3.0 (ug/eye)
Type: functional, Cercopithecidae
The reader will find reported Imax values listed item by item below.

| CHEMICAL_STRUCTURE | Imax |
| --- | --- |
| Cc1ccc(CC[C@H](O)/C=C/[C@@H]2[C@@H](C/C=C\CCCC(=O)OC(C)C)[C@@H](O)C[C@H]2O)cc1 | <-1.6 mmHg |
| CC(=O)c1ccc(CC[C@H](O)/C=C/[C@@H]2[C@@H](C/C=C\CCCC(=O)OC(C)C)[C@@H](O)C[C@H]2O)cc1 | <-2.3 mmHg |
| CC(C)OC(=O)CCC/C=C\C[C@@H]1[C@@H](/C=C/[C@@H](O)CCc2ccc(-c3ccccc3)cc2)[C@H](O)C[C@@H]1O | <0.8 mmHg |
| CC(C)OC(=O)CCC/C=C\C[C@@H]1[C@@H](/C=C/[C@@H](O)CCc2ccccc2)[C@H](O)C[C@@H]1O | -2.9 mmHg |
| CC(C)OC(=O)CCC/C=C\C[C@@H]1[C@@H](/C=C/[C@@H](O)CCc2ccc(-c3cccs3)cc2)[C@H](O)C[C@@H]1O | <1.5 mmHg |
| CC(C)OC(=O)CCC/C=C\C[C@@H]1[C@@H](/C=C/[C@@H](O)CCc2cccc(Br)c2)[C@H](O)C[C@@H]1O | -2 mmHg |
| CC(C)OC(=O)CCC/C=C\C[C@@H]1[C@@H](/C=C/[C@H](O)CCc2cccc(Br)c2)[C@H](O)C[C@@H]1O | -1.4 mmHg |
| Cc1cccc(CC[C@H](O)/C=C/[C@@H]2[C@@H](C/C=C\CCCC(=O)OC(C)C)[C@@H](O)C[C@H]2O)c1 | <-0.6 mmHg |
| CC(=O)c1cccc(CC[C@H](O)/C=C/[C@@H]2[C@@H](C/C=C\CCCC(=O)OC(C)C)[C@@H](O)C[C@H]2O)c1 | <-2.8 mmHg |

Origin of values: ChEMBL document CHEMBL1128437
